target: Serine/threonine-protein kinase PAK 4 (Homo sapiens) (UniProt O96013); details: at 1 µM
Sequence (O96013 whole entry, looked up): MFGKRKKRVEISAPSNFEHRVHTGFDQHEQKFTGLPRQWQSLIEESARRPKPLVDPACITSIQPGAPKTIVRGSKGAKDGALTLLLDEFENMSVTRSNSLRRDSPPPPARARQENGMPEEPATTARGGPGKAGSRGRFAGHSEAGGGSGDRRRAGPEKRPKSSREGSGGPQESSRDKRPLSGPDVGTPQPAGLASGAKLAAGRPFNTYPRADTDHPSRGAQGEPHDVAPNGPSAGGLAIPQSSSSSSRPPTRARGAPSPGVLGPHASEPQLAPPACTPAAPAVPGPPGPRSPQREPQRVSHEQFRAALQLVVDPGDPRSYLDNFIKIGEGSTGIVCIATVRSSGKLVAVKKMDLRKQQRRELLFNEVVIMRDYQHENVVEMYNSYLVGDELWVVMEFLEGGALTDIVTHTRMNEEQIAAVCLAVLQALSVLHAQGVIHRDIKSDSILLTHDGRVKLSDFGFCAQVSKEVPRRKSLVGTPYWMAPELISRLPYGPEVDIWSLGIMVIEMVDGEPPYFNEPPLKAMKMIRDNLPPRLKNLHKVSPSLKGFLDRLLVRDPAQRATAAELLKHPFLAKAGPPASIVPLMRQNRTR

{"columns": ["CHEMICAL_STRING", "UNIT_ANNOTATION", "residual activity"],
 "data": [
  ["Nc1n[nH]c2nc3ccccc3nc12", "%", 94],
  ["NCCNc1ncc(C(N)=O)c(Nc2cccc(C(F)(F)F)c2)n1", "%", 49],
  ["O=C1NC(=O)c2c1c1c3ccccc3[nH]c1n1cncc21", "%", 81],
  ["COc1ccc(-c2cnc3c(-c4ccsc4)cnn3c2)cc1", "%", 99],
  ["O=C1Cc2c([nH]c3ccc([N+](=O)[O-])cc23)-c2ccccc2N1", "%", 22],
  ["O=S(=O)(c1cccc2cnccc12)N1CCCNCC1", "%", 106],
  ["COc1ccc(Cl)cc1NC(=O)Nc1cc(C)nc2ccccc12", "%", 96],
  ["O=C(Nc1ccc(Cl)cc1)c1ccccc1NCc1ccncc1", "%", 100],
  ["c1ccc(-c2cnc(Nc3ccc(OCCN4CCCC4)cc3)s2)cc1", "%", 105],
  ["O=C1Cc2c([nH]c3ccc(Br)cc23)-c2ccccc2N1", "%", 25],
  ["NC(=O)Nc1sc(-c2ccc(F)cc2)cc1C(N)=O", "%", 55],
  ["O=c1cc(N2CCOCC2)oc2c1ccc1ccccc12", "%", 94]
]}
